# key: entry, value: AC50
- Method summary: Luminescence Cell-Based Dose Retest to Confirm Inhibitors of Cancer Stem Cells. [Related pubchem assays (depositor defined):AID2717, AID2721]
- Format: functional
- Experimental parameters: Homo sapiens
Activity calls are given as the source filed them.

# Chemical smiles, AC50
records = [
    ("CC1CCN(c2nc(Cl)nc(Nc3ccc([N+](=O)[O-])cc3)n2)CC1", "2.99 µM (active)"),
    ("Cc1cc(OCC(=O)Nc2ccc(S(=O)(=O)NC3=NCCCCC3)cc2)c(C(C)C)cc1Cl", "6.13 µM (active)"),
    ("CCOC(=O)c1sc(NC(=O)c2cc(-c3ccccc3C)nc3ccccc23)c(C#N)c1C", "0.693 µM (active)"),
    ("CCN(CC)CCOc1ccc(/C(=C(/Cl)c2ccccc2)c2ccccc2)cc1", "1.6 µM (active)"),
]

* * *

- Measurement target: Heat shock factor protein 1 (Mus musculus, UniProt P38532)
- Sequence (P38532 whole entry): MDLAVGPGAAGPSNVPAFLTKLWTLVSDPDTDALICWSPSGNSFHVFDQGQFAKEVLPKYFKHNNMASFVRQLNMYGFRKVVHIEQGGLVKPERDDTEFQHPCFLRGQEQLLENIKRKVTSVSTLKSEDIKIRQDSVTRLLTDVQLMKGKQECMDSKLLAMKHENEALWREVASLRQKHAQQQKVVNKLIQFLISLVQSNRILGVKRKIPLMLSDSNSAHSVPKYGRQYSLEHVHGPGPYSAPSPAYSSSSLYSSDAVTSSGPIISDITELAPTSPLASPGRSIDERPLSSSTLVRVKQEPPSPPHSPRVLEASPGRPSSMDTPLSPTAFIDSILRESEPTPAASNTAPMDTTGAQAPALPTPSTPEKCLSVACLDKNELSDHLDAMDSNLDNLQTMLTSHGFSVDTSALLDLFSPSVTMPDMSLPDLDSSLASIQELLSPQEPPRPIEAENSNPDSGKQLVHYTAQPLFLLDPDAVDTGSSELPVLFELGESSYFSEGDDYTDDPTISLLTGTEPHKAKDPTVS
- Method summary: inhibition of MG132-induced HSE-luciferase signal, confirmation, cell-based, NIH3T3, luminescence, dose retest (AID 2382);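 also: NIH3T3 fibroblasts with HSF1-driven luciferase reporter stressed by proteasome inhibitor MG132; luminescence from HSF1-driven luciferase expression after 8 hours of MG132 stress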
- Assay type: functional
Activity calls are given as the source filed them.

# Compound, EC50
data = [
    ("O=c1c2ccccc2sc2ccc(C#CC3(O)CCCCC3)cc12", "< 0.16 µM (active)"),
    ("Cc1c(C(=O)C2=C(O)C(=O)N(CCN3CCOCC3)C2c2ccccn2)cnn1-c1ccccc1 (stereo not drawn)", "1.29 µM (active)"),
    ("CC1Cc2ccccc2N1C(=O)C12CCC(C)(C(=O)C1)C2(C)C (stereo not drawn)", "> 195 µM (not active)"),
]

* * *

# key: entry, value: EC50
- Measurement target: RNA-binding protein pos-1 (Caenorhabditis elegans)
- Sequence (G5EF15 whole entry, the tested form may be a part): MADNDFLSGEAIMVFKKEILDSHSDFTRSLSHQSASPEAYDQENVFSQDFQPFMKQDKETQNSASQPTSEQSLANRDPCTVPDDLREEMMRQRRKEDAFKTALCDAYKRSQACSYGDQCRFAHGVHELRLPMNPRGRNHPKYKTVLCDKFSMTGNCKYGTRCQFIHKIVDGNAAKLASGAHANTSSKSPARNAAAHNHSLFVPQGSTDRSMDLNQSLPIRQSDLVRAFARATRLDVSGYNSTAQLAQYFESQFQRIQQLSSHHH
- Method summary: inhibitors of POS-1/mex-3 RNA binding, dose response, biochemical, fluorescence polarization (AID 1964);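 also: purified POS-1 fused to maltose binding protein made in E. coli; potency of compounds blocking POS-1 binding to fluorescent RNA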
Active and inactive are the calls of the source.

# Chemical smiles, Measurement target, EC50
records = [
    ("Cc1cc[n+](C2=C([N-]S(=O)(=O)c3cccs3)C(=O)c3ccccc3C2=O)cc1C", "RNA-binding protein pos-1 (Caenorhabditis elegans)", "> 300 µM (not active)"),
    ("COc1ccc(OC)c(N/C=C2/C(=O)NC(=S)N(Cc3ccccc3)C2=O)c1", "RNA-binding protein pos-1 (Caenorhabditis elegans)", "> 300 µM (not active)"),
    ("CCCCCCN1C(=O)/C(=C/Nc2ccccc2N2CCOCC2)C(=O)NC1=S", "RNA-binding protein pos-1 (Caenorhabditis elegans)", "> 300 µM (not active)"),
    ("FC(F)(F)c1cc(C(F)(F)F)n2nc(-c3sccc3-n3cccc3)cc2n1", "RNA-binding protein pos-1 (Caenorhabditis elegans)", "> 300 µM (not active)"),
    ("Cc1ccc(/C=C2\\C(=O)NC(=S)N(c3cccc(F)c3)C2=O)o1", "RNA-binding protein pos-1 (Caenorhabditis elegans)", "63.5 µM (active)"),
    ("CC/C(NCCCN(C)C)=C1/C(=O)NC(=O)N(c2ccc(OC)cc2)C1=O", "RNA-binding protein pos-1 (Caenorhabditis elegans)", "> 300 µM (not active)"),
    ("O=C(Cn1cncn1)N/N=C/c1c2ccccc2cc2ccccc12", "RNA-binding protein pos-1 (Caenorhabditis elegans)", "> 300 µM (not active)"),
    ("O=C(O)CCc1ccc(-c2ccccc2)n1-c1cccc(C(=O)O)c1", "RNA-binding protein pos-1 (Caenorhabditis elegans)", "> 300 µM (not active)"),
    ("CCc1ccc(/C=C2\\Oc3c(ccc(O)c3CN3CCN(CCO)CC3)C2=O)cc1", "RNA-binding protein pos-1 (Caenorhabditis elegans)", "37.1 µM (active)"),
    ("Nc1nonc1C(=O)NCC/N=C/c1cc(Cc2ccccc2)cc(Br)c1O", "RNA-binding protein pos-1 (Caenorhabditis elegans)", "> 300 µM (not active)"),
]
